# experiment_notes: molar heat capacity at constant pressure
# condition_info: 293 K; 101.33 kPa; Crystal; Small sample (50 mg) DSC
endpoint_name: molar heat capacity at constant pressure (J/K/mol)

{"columns": ["compound", "endpoint_name", "measurement_units", "recorded_measurement"],
 "data": [
  ["O=[N+]([O-])C(=C1NCCN1)[N+](=O)[O-]", "molar heat capacity at constant pressure", "J/K/mol", 202.67],
  ["O=[N+]([O-])C(=C1NCCCCN1)[N+](=O)[O-]", "molar heat capacity at constant pressure", "J/K/mol", 211.67],
  ["NC(N)=C([N+](=O)[O-])[N+](=O)[O-]", "molar heat capacity at constant pressure", "J/K/mol", 174.14],
  ["CC1CNC(=C([N+](=O)[O-])[N+](=O)[O-])N1 (stereo not given)", "molar heat capacity at constant pressure", "J/K/mol", 215.8],
  ["O=[N+]([O-])C(=C1NCCCN1)[N+](=O)[O-]", "molar heat capacity at constant pressure", "J/K/mol", 205.26]
]}

* * *

# experiment_notes: molar heat capacity at constant pressure
# condition_info: 353 K; 101.33 kPa; Crystal; Small sample (50 mg) DSC
We begin with a simple list: items and their reported molar heat capacity at constant pressure.

{"columns": ["compound", "molar heat capacity at constant pressure (J/K/mol)"],
 "data": [
  ["O=[N+]([O-])C(=C1NCCCN1)[N+](=O)[O-] [2-(dinitromethylene)-1,3-diazacyclohexane]", 234.99],
  ["CC1CNC(=C([N+](=O)[O-])[N+](=O)[O-])N1 (stereo not given) [2-(dinitromethylene)-4-methylimidazolidine]", 251.92],
  ["O=[N+]([O-])C(=C1NCCCCN1)[N+](=O)[O-] [2-(dinitromethylene)-1,3-diazacycloheptane]", 254.33],
  ["NC(N)=C([N+](=O)[O-])[N+](=O)[O-] [1,1-diamino-2,2-dinitroethene]", 201.68],
  ["O=[N+]([O-])C(=C1NCCN1)[N+](=O)[O-] [2-(dinitromethylene)-1,3-diazacyclopentane]", 234.36]
]}

* * *

# experiment_notes: molar heat capacity at constant pressure
# condition_info: 303 K; 101.33 kPa; Crystal; Small sample (50 mg) DSC
endpoint_name: molar heat capacity at constant pressure (J/K/mol)

{"columns": ["molecule", "recorded_measurement"],
 "data": [
  ["CC1CNC(=C([N+](=O)[O-])[N+](=O)[O-])N1 (stereo not given)", 221.82],
  ["NC(N)=C([N+](=O)[O-])[N+](=O)[O-]", 178.73],
  ["O=[N+]([O-])C(=C1NCCCCN1)[N+](=O)[O-]", 218.75],
  ["O=[N+]([O-])C(=C1NCCN1)[N+](=O)[O-]", 207.89],
  ["O=[N+]([O-])C(=C1NCCCN1)[N+](=O)[O-]", 210.16]
]}

* * *

Reported molar heat capacity at constant pressure values for a set of compounds
# experiment_notes: molar heat capacity at constant pressure
# condition_info: 343 K; 101.33 kPa; Crystal; Small sample (50 mg) DSC
± gives the expanded uncertainty stated by the source.

{"columns": ["compound", "molar heat capacity at constant pressure"],
 "data": [
  ["O=[N+]([O-])C(=C1NCCCN1)[N+](=O)[O-]", "230.1 ± 4.5 J/K/mol"],
  ["NC(N)=C([N+](=O)[O-])[N+](=O)[O-]", "197.09 ± 4 J/K/mol"],
  ["O=[N+]([O-])C(=C1NCCCCN1)[N+](=O)[O-]", "247.25 ± 4.9 J/K/mol"],
  ["CC1CNC(=C([N+](=O)[O-])[N+](=O)[O-])N1 (stereo not given)", "245.9 ± 4.9 J/K/mol"],
  ["O=[N+]([O-])C(=C1NCCN1)[N+](=O)[O-]", "229.14 ± 4.5 J/K/mol"]
]}
